test system: A375 multi-cell spheroids with HUVEC/MSC, viability; assay: Anticancer human tumor A375 cell line growth inhibition [GQUAD]; conditions: second compound 3.16 µM; first compound 0.0999 µM; stronger effect = lower value;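 note: spheroids exposed to compounds for seven days before readout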

COMPOUND	SYSTEM_TESTED	viability, T/C
Cn1ncnc1[C@H]1c2n[nH]c(=O)c3cc(F)cc(c23)N[C@@H]1c1ccc(F)cc1 + Cc1cnc(CNC(=O)c2c(=O)c3ccc(N4CCCN(C)CC4)nc3n3c2sc2ccccc23)cn1	A375 multi-cell spheroids with HUVEC/MSC, viability	34.2%
CCc1c2c(nc3ccc(O)cc13)-c1cc3c(c(=O)n1C2)COC(=O)[C@]3(O)CC + Cc1[nH]c2ccc(F)cc2c1-c1nc2c3cccnc3c3ncccc3c2[nH]1	A375 multi-cell spheroids with HUVEC/MSC, viability	0.47%
Cc1[nH]c2ccccc2c1CCNCc1ccc(/C=C/C(=O)NO)cc1 + Cc1cnc(CNC(=O)c2c(=O)c3ccc(N4CCCN(C)CC4)nc3n3c2sc2ccccc23)cn1	A375 multi-cell spheroids with HUVEC/MSC, viability	13.6%
CC[C@@]1(O)C(=O)OCc2c1cc1n(c2=O)Cc2cc3c(CN(C)C)c(O)ccc3nc2-1 + CN(C)c1ccc(Nc2c3ccc(NC(=O)CCN4CCCC4)cc3nc3cc(NC(=O)CCN4CCCC4)ccc23)cc1	A375 multi-cell spheroids with HUVEC/MSC, viability	20.6%
CC[C@@]1(O)C(=O)OCc2c1cc1n(c2=O)Cc2cc3c(CN(C)C)c(O)ccc3nc2-1 + Cc1cnc(CNC(=O)c2c(=O)c3ccc(N4CCCN(C)CC4)nc3n3c2sc2ccccc23)cn1	A375 multi-cell spheroids with HUVEC/MSC, viability	17.6%
Cc1[nH]c2ccccc2c1CCNCc1ccc(/C=C/C(=O)NO)cc1 + Cc1[nH]c2ccc(F)cc2c1-c1nc2c3cccnc3c3ncccc3c2[nH]1	A375 multi-cell spheroids with HUVEC/MSC, viability	26.4%
Cc1[nH]c2ccccc2c1CCNCc1ccc(/C=C/C(=O)NO)cc1 + CN(C)c1ccc(Nc2c3ccc(NC(=O)CCN4CCCC4)cc3nc3cc(NC(=O)CCN4CCCC4)ccc23)cc1	A375 multi-cell spheroids with HUVEC/MSC, viability	52.3%
CCc1c2c(nc3ccc(O)cc13)-c1cc3c(c(=O)n1C2)COC(=O)[C@]3(O)CC + Cc1cnc(CNC(=O)c2c(=O)c3ccc(N4CCCN(C)CC4)nc3n3c2sc2ccccc23)cn1	A375 multi-cell spheroids with HUVEC/MSC, viability	0.08%
Cn1ncnc1[C@H]1c2n[nH]c(=O)c3cc(F)cc(c23)N[C@@H]1c1ccc(F)cc1 + CN(C)c1ccc(Nc2c3ccc(NC(=O)CCN4CCCC4)cc3nc3cc(NC(=O)CCN4CCCC4)ccc23)cc1	A375 multi-cell spheroids with HUVEC/MSC, viability	106%
Cn1ncnc1[C@H]1c2n[nH]c(=O)c3cc(F)cc(c23)N[C@@H]1c1ccc(F)cc1 + Cc1[nH]c2ccc(F)cc2c1-c1nc2c3cccnc3c3ncccc3c2[nH]1	A375 multi-cell spheroids with HUVEC/MSC, viability	80.7%
CCc1c2c(nc3ccc(O)cc13)-c1cc3c(c(=O)n1C2)COC(=O)[C@]3(O)CC + CN(C)c1ccc(Nc2c3ccc(NC(=O)CCN4CCCC4)cc3nc3cc(NC(=O)CCN4CCCC4)ccc23)cc1	A375 multi-cell spheroids with HUVEC/MSC, viability	6.28%
CC[C@@]1(O)C(=O)OCc2c1cc1n(c2=O)Cc2cc3c(CN(C)C)c(O)ccc3nc2-1 + Cc1[nH]c2ccc(F)cc2c1-c1nc2c3cccnc3c3ncccc3c2[nH]1	A375 multi-cell spheroids with HUVEC/MSC, viability	30.7%

----------
Entries and their pIC50
system: A375 multi-cell spheroids with HUVEC/MSC, viability; experiment: Anticancer human tumor A375 cell line growth inhibition [GQUAD]; details: curve of first compound; second compound 3.16 µM;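 note: spheroids exposed to compounds for seven days before readout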
pIC50: −log10 of the molar value.
RECORDED_ENDPOINT: pIC50

COMPOUND	RECORDED_ENDPOINT	MEASURED_RESULT
Cc1cccc(N(C)C(=O)C2C(O)CCN2c2nc(C)cc(C(F)(F)F)c2C#N)c1 (stereo unspecified) + Cc1[nH]c2ccc(F)cc2c1-c1nc2c3cccnc3c3ncccc3c2[nH]1	pIC50	< 5.00
O=C(c1cc(Cc2n[nH]c(=O)c3ccccc23)ccc1F)N1CCN(C(=O)C2CC2)CC1 + Cc1[nH]c2ccc(F)cc2c1-c1nc2c3cccnc3c3ncccc3c2[nH]1	pIC50	< 5.00
Cn1ncnc1[C@H]1c2n[nH]c(=O)c3cc(F)cc(c23)N[C@@H]1c1ccc(F)cc1 + CN(C)c1ccc(Nc2c3ccc(NC(=O)CCN4CCCC4)cc3nc3cc(NC(=O)CCN4CCCC4)ccc23)cc1	pIC50	< 6.50
COc1ccc([C@@H](O)c2cc(-c3ncnc4cc(N5CCOCC5)ccc34)c(F)cc2Cl)nn1 + Cc1[nH]c2ccc(F)cc2c1-c1nc2c3cccnc3c3ncccc3c2[nH]1	pIC50	< 5.00
O=C(c1cc(Cc2n[nH]c(=O)c3ccccc23)ccc1F)N1CCN(C(=O)C2CC2)CC1 + Cc1cnc(CNC(=O)c2c(=O)c3ccc(N4CCCN(C)CC4)nc3n3c2sc2ccccc23)cn1	pIC50	> 7.50
O=c1[nH]cc(F)c(=O)[nH]1 + Cc1[nH]c2ccc(F)cc2c1-c1nc2c3cccnc3c3ncccc3c2[nH]1	pIC50	< 5.00
CC(C)n1c(=O)n(C)c2cnc3cc(F)c(-c4ccc(OCCCN5CCCCC5)nc4)cc3c21 + Cc1cnc(CNC(=O)c2c(=O)c3ccc(N4CCCN(C)CC4)nc3n3c2sc2ccccc23)cn1	pIC50	> 7.50
O=C(NO)c1cnc(N2CCN(S(=O)(=O)c3ccc4ccccc4c3)CC2)nc1 + CN(C)c1ccc(Nc2c3ccc(NC(=O)CCN4CCCC4)cc3nc3cc(NC(=O)CCN4CCCC4)ccc23)cc1	pIC50	6.72
COc1cc(C2c3cc4c(cc3C(OC3OC5COC(C)OC5C(O)C3O)C3COC(=O)C23)OCO4)cc(OC)c1O (stereo unspecified) + Cc1cnc(CNC(=O)c2c(=O)c3ccc(N4CCCN(C)CC4)nc3n3c2sc2ccccc23)cn1	pIC50	> 7.50
CCCS(=O)(=O)Nc1ccc(F)c(C(=O)c2c[nH]c3ncc(-c4ccc(Cl)cc4)cc23)c1F + Cc1cnc(CNC(=O)c2c(=O)c3ccc(N4CCCN(C)CC4)nc3n3c2sc2ccccc23)cn1	pIC50	> 7.50
CC1COCCN1c1cc(C2(O)CC3CCC(C2)O3)c2cnn(-c3ccn[nH]3)c2n1 (stereo unspecified) + Cc1[nH]c2ccc(F)cc2c1-c1nc2c3cccnc3c3ncccc3c2[nH]1	pIC50	> 7.50

----------
tested on: A375 multi-cell spheroids with HUVEC/MSC, viability; test: Anticancer human tumor A375 cell line growth inhibition [GQUAD]; settings: second compound 1 µM; first compound 0.0316 µM; stronger effect = lower value;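 note: spheroids exposed to compounds for seven days before readout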
RECORDED_ENDPOINT: viability, T/C (%)

COMPOUND	RECORDED_ENDPOINT	UNIT_INFO	MEASURED_RESULT
CC[C@@]1(O)C(=O)OCc2c1cc1n(c2=O)Cc2cc3c(CN(C)C)c(O)ccc3nc2-1 + Cc1cnc(CNC(=O)c2c(=O)c3ccc(N4CCCN(C)CC4)nc3n3c2sc2ccccc23)cn1	viability, T/C	%	29.1
COc1cccc2c1C(=O)c1c(O)c3c(c(O)c1C2=O)CC(O)(C(=O)CO)CC3OC1CC(N)C(O)C(C)O1 (stereo not drawn) + Cc1[nH]c2ccc(F)cc2c1-c1nc2c3cccnc3c3ncccc3c2[nH]1	viability, T/C	%	99.3
C=CCn1c(=O)c2cnc(Nc3ccc(N4CCN(C)CC4)cc3)nc2n1-c1cccc(C(C)(C)O)n1 + Cc1cnc(CNC(=O)c2c(=O)c3ccc(N4CCCN(C)CC4)nc3n3c2sc2ccccc23)cn1	viability, T/C	%	37.1

----------
System: A375 multi-cell spheroids with HUVEC/MSC, viability
Experiment: Anticancer human tumor A375 cell line growth inhibition [GQUAD];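 note: spheroids exposed to compounds for seven days before readout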
Conditions: second compound 10 µM; first compound 0.1 µM; stronger effect = lower value
Source text: DNA G-quadruplex Stabilizer Agents in Combinations in Complex Spheroids A high-throughput screen of multi-cell type tumor spheroids was designed to identify active combinations of DNA G-quadruplex stabilizer agents and targeted small molecules. […] Compounds. […] If the clinical Cmax for an agent had not been determined, the highest concentration tested was 10 microM. […]
Entries and their viability, T/C
RECORDED_ENDPOINT: viability, T/C

COMPOUND	MEASURED_RESULT
Nc1ccn(C2OC(CO)C(O)C2(F)F)c(=O)n1 (stereo unspecified) + Cc1[nH]c2ccc(F)cc2c1-c1nc2c3cccnc3c3ncccc3c2[nH]1	10.7%
C#Cc1c(F)ccc2cc(O)cc(-c3ncc4c(N5CC6CCC(C5)N6)nc(OCC56CCCN5CC(F)C6)nc4c3F)c12 (stereo unspecified) + Cc1[nH]c2ccc(F)cc2c1-c1nc2c3cccnc3c3ncccc3c2[nH]1	86.9%
CC(C)n1c(=O)n(C)c2cnc3cc(F)c(-c4ccc(OCCCN5CCCCC5)nc4)cc3c21 + Cc1cnc(CNC(=O)c2c(=O)c3ccc(N4CCCN(C)CC4)nc3n3c2sc2ccccc23)cn1	39%
COc1ncnc(C2CC2)c1-c1ncc2cnn(Cc3ccc(-c4nc(C(F)(F)F)cn4C(C)C)cc3)c2n1 + CN(C)c1ccc(Nc2c3ccc(NC(=O)CCN4CCCC4)cc3nc3cc(NC(=O)CCN4CCCC4)ccc23)cc1	101%
CC1COCCN1c1cc(-c2ccnn2C)c2ccnc(-c3ccn[nH]3)c2n1 (stereo unspecified) + Cc1[nH]c2ccc(F)cc2c1-c1nc2c3cccnc3c3ncccc3c2[nH]1	30.2%
Nc1ccn(C2OC(CO)C(O)C2(F)F)c(=O)n1 (stereo unspecified) + Cc1cnc(CNC(=O)c2c(=O)c3ccc(N4CCCN(C)CC4)nc3n3c2sc2ccccc23)cn1	22.1%
